Hello, the source for this data is patent US20200079833A1, in case you need it.

- target-desc: T1, glucose-dependent insulinotropic peptide (gastric inhibitory polypeptide) receptor (GIPR), primary cAMP assay … (human, UniProt P48546 22-466)
- T1 sequence (looked up): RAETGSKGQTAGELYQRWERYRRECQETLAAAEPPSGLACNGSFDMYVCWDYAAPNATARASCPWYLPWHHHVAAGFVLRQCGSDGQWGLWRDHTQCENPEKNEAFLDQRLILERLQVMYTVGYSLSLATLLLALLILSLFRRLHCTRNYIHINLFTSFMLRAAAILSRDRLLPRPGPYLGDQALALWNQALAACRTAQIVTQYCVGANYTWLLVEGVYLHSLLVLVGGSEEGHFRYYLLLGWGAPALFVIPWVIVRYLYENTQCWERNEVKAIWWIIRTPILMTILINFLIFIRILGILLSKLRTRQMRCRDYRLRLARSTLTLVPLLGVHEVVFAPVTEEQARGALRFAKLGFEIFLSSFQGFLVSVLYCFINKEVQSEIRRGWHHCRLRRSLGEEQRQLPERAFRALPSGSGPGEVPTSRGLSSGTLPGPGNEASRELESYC
- measurement-notes: cell-based or functional assay
Starred links: 1 amine or outer side, 2 acyl side, 3 side chain; linkers in the order of their positions; H or OH if unused. Non-standard residues stand in square brackets, D forms with d. Groups on a side chain read outwards from the residue. Primed or numbered codes have the meaning given here. No end group written: not given here. *: point of attachment. γGlu = O=C(O)[C@H](CCC(=O)[*:2])N[*:1]; αMeF = C[C@](N)(Cc1ccccc1)C(=O)O; αMeK = C[C@](N)(CCCCN)C(=O)O; Lauroyl = CCCCCCCCCCCC(=O)*; αMeS = C[C@](N)(CO)C(=O)O; PEG2′ = not defined here; Aib = CC(C)(N)C(=O)O
experimental-endpoint: cAMP Primary assay EC50, n1 (nM)

[[record]]
binder = "H[Aib]EGS[αMeF]TSDVSK([PEG2′-PEG2′-γGlu-Lauroyl])YLEGK([PEG2′-PEG2′-γGlu-Lauroyl])AA[αMeK]EFIK([PEG2′-PEG2′-γGlu-Lauroyl])FVVEGG-NH2 [SEQ ID NO: 444]"
experimental_endpoint = "cAMP Primary assay EC50, n1"
measurement = 19.7

[[record]]
binder = "H[Aib]EGS[αMeF]TSDK([PEG2′-PEG2′-γGlu-Lauroyl])SSYLEK([PEG2′-PEG2′-γGlu-Lauroyl])EAA[αMeK]EFIAK([PEG2′-PEG2′-γGlu-Lauroyl])VVEGG-NH2 [SEQ ID NO: 455]"
experimental_endpoint = "cAMP Primary assay EC50, n1"
measurement = 19.8

[[record]]
binder = "H[Aib]EGS[αMeF]TSDV[αMeS]SYK([PEG2′-PEG2′-γGlu-Lauroyl])EGK([PEG2′-PEG2′-γGlu-Lauroyl])AA[αMeK]EFIAK([PEG2′-PEG2′-γGlu-Lauroyl])VVEGG-NH2 [SEQ ID NO: 468]"
experimental_endpoint = "cAMP Primary assay EC50, n1"
measurement = 20

[[record]]
binder = "H[Aib]EGS[αMeF]TSDV[αMeS]SK([PEG2′-PEG2′-γGlu-Lauroyl])LEGEK([PEG2′-PEG2′-γGlu-Lauroyl])A[αMeK]EFIK([PEG2′-PEG2′-γGlu-Lauroyl])FVVEGG-NH2 [SEQ ID NO: 449]"
experimental_endpoint = "cAMP Primary assay EC50, n1"
measurement = 19.7

